# credit: paper PMC7156458

# EXPERIMENTAL_SYSTEM: Aβ42 (Homo sapiens)
# Sequence (P05067 672-713): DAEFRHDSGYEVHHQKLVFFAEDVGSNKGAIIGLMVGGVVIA
# MEASUREMENT_PROTOCOL: Th-T (thioflavin-T) assay of Aβ42 aggregation
# Assay type: biochemical
# SETUP_CONDITIONS: concentration 10, unit not given; time-course reading M132
Record form. Attribute: Th-T fluorescence of Aβ42 with compound, mean of three wells (Fig. 7a source data). Fill in for each entry.
# output: bare number, no unit

# Th-T fluorescence of Aβ42 with compound, mean of three wells (Fig. 7a source data) lookup, item `C=C1CC[C@@H]2[C@](C)(CC[C@H]3O[C@H](C=C(C)C)C[C@@]23C)[C@@H]1Cc1c(OC)oc(CO)c(C)c1=O`
3.188

Look up Th-T fluorescence of Aβ42 with compound, mean of three wells (Fig. 7a source data) for this compound: `C=C1CC[C@@H]2[C@](C)(CC[C@H]3O[C@H](C=C(C)C)C[C@@]23C)[C@@H]1Cc1c(OC)oc(CO)c(C(=O)OC)c1=O`
1.6977

Fill in: Th-T fluorescence of Aβ42 with compound, mean of three wells (Fig. 7a source data) of C=C1CCC2C(C)(CCC=C(C)C)C(O)CCC2(C)C1Cc1c(OC)oc(CO)c(C)c1=O (centres unmarked) is ___
2.3677

Field request: Th-T fluorescence of Aβ42 with compound, mean of three wells (Fig. 7a source data) | item: C=C1CCC2C(C)(CCC=C(C)C)C(O)CCC2(C)C1Cc1c(OC)oc(C)c(C(=O)OC)c1=O (centres unmarked)
2.913

Name the recorded Th-T fluorescence of Aβ42 with compound, mean of three wells (Fig. 7a source data) for C=C1CCC2C(C)(CCC=C(C)C)C(O)CCC2(C)C1Cc1c(OC)oc(CO)c(C(=O)OC)c1=O (centres unmarked) .
1.542

====

# EXPERIMENTAL_SYSTEM: UniProt:P05067
# MEASUREMENT_PROTOCOL: Th-T (thioflavin-T) assay of Aβ42 aggregation
# Assay type: biochemical
# SETUP_CONDITIONS: time-course reading M111; Supplementary Fig. 47 source data
For each entry below, report its Th-T fluorescence, mean of three wells value.
Please state the value as a number alone, without comment.

Dear colleague, I am looking for the recorded Th-T fluorescence, mean of three wells of the following compound: C=C1CCC2C(C)(CC(=O)C=C(C)C)C(O)CCC2(C)C1Cc1c(O)c(C)c(C)oc1=O (stereo not shown)
3.513

Field request: Th-T fluorescence, mean of three wells | item: `C=C1CC[C@@H]2[C@](C)(CC[C@H]3O[C@H](C=C(C)C)C[C@@]23C)[C@@H]1Cc1c(OC)oc(CO)c(C)c1=O`
4.24

# Th-T fluorescence, mean of three wells lookup, item C=C1CCC2C(C)(CCC=C(C)C)C(=O)CCC2(C)C1Cc1c(O)c(C)c(C)oc1=O (stereo not shown)
2.201

# lookup: Th-T fluorescence, mean of three wells of C=C1CCC2C(C)(CCC=C(C)C)C(O)CCC2(C)C1Cc1c(O)c(C)c(C)oc1=O (stereo not shown) [Compound 4]
2.786

For C=C1CCC2C(C)(CCC=C(C)C)C(O)CCC2(C)C1Cc1c(OC)oc(CO)c(C)c1=O (stereo not shown) , what is its reported Th-T fluorescence, mean of three wells?
2.087

# get_value(readout='Th-T fluorescence, mean of three wells', item= C=C1CCC2C(C)(CCC=C(C)C)C(O)CCC2(C)C1Cc1c(OC)oc(C)c(C(=O)OC)c1=O (stereo not shown) )
1.648

Quick one: Th-T fluorescence, mean of three wells of C=C1CCC2C(C)(CCC=C(C)C)C(O)CCC2(C)C1Cc1c(OC)oc(C)c(C)c1=O (stereo not shown) [Compound 11] ?
3.4993
